- assay.system: T1, bovine serum albumin (BSA) (bovine, UniProt P02769 25-607)
- T1 construct: Control antigen coated at 1% in PBS (pH 7.4); also called negative control antigen
- T1 sequence (P02769 25-607 limits assumed): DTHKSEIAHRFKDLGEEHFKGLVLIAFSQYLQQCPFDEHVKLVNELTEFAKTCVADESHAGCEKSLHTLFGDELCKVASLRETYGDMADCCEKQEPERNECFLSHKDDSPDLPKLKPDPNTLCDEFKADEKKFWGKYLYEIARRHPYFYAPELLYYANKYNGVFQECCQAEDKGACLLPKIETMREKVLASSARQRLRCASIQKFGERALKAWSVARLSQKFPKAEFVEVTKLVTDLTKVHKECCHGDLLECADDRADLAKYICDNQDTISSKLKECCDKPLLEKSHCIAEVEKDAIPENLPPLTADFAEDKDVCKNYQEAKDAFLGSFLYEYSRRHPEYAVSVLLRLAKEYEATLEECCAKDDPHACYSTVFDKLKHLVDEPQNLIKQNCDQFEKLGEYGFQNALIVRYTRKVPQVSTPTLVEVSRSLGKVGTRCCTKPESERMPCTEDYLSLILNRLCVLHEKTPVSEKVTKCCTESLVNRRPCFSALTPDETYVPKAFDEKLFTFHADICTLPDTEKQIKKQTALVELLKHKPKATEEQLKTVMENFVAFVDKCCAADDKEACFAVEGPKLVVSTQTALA
- procedure.details: phage ELISA, BSA coated

binder	binding result
SC05-187 (scFv, Vl 138-246); also called single-chain phage antibody SC05-187) scFv: EVQLVQSGAEVKKPGESLKISCKGSGYSFTKYWIGWVRQMPGKGLEWMGIIYPGDSDTRYSPSFQGQVTISADKSISTAYLQWSSLKASDTAMYYCARGSGIATGNSFDSWGQGTLVTVSSGTGGSGGTGSGTGGSTQTVVTQEPSLTVSPGGTVTLTCASSTGAVTSGYYPNWFQQKPGQAPRALIYSTSKKHSWTPARFSGSLLGGRAALTLSGAQPEDEADYYCLLSYGGARVFGGGTKLTVL	no binding
SC06-043 (scFv, Vl 140-249); also called single-chain phage antibody SC06-043) scFv: EVQLVESGAEVKKPGESLKISCKGSGYSFTSYWIGWVRQMPGKGLEWMGIIYPGDSDTRYSPSFQGQVTISADKSISTAYLQWSSLKASDTAMYYCARRYCSGGTCSDGFDIWGQGTMVTVSSGTGGSGGTGSGTGGSTQSALTQPPSASGSPGQSVTISCTGTSSDVGGYNYVSWYQQHPGKAPKLMIYEVSKRPSGVPDRFSGSKSGNTASLTVSGLQAEDEADYYCSSYAGSNNLVFGGGTKLTVL	no binding
SC06-087 (scFv, Vl 139-249); also called single-chain phage antibody SC06-087) scFv: EVQLVESGGGLVKPGGSLRLSCAASGFTFSSNSMNWVRQAPGKGLEWVSFISSSSTYIYYADSVKGRFTISRDNAKNSLYLQMNSLRAEDTAVYYCARESAAGISYDAFDIWGQGTMVTVSSGTGGSGGTGSGTGGSTQSALTQPASVSGSPGQSITISCTGTSSDVGGYKYVSWYQQHPGKAPKLMIYEVSNRPSGVSNRFSGSKSGSTASLTISGLQAEDEADYYCSSYTSSSTLGVFGTGTKVTVL	no binding

These entries and their values trace back to patent US20090169562A1.
